Reference for the values: patent US9624243B2

Observed pIC50 for AT2 receptor (Homo sapiens (Human)), reported per entry below.
Give bare numbers, as −log10 of the molar value.

Could you report pIC50 for every entry in the following list?
1. O=C(O)[C@@H]1C[C@H](N2CCC[C@H]3CN(Cc4ccccc4)C[C@H]32)CN1C(=O)C(c1ccccc1)c1ccccc1
2. CN(C)S(=O)(=O)NC(=O)[C@@H]1C[C@H](OCCCc2ccccc2)CN1C(=O)C(c1ccccc1)c1ccccc1 [Compound 112]
3. O=C(O)[C@@H]1C[C@H](CS(=O)(=O)Cc2ccccc2)CN1C(=O)C(c1ccccc1)c1ccccc1

stdout:
7.12
6.59
6.50

# return pIC50 for each item in the list
1. CN(C)S(=O)(=O)NC(=O)[C@@H]1C[C@H](OCCCc2ccccc2)CN1C(=O)C(c1ccccc1)c1ccccc1 [Compound 50]
2. O=C(O)[C@@H]1C[C@H](N2CCC[C@H](c3ccccc3)C2)CN1C(=O)C(c1ccccc1)c1ccccc1
3. O=C(O)[C@@H]1C[C@H](N2CCC3(CCOC(=O)N3Cc3ccccc3)C2)CN1C(=O)C(c1ccccc1)c1ccccc1 (some centres unmarked)
4. O=C(O)[C@@H]1C[C@H](SCCCc2ccccc2)CN1C(=O)C(c1ccccc1)c1ccccc1
5. O=C(O)[C@@H]1C[C@H](n2nncc2Cc2ccccc2)CN1C(=O)C(c1ccccc1)c1ccccc1
6. O=C(O)[C@@H]1C[C@H](COCc2ccccc2)CN1C(=O)C(c1ccccc1)c1ccccc1
7. O=C(O)[C@@H]1C[C@H](SCCCc2ccc(F)cc2)CN1C(=O)C(c1ccccc1)c1ccccc1
8. O=C(O)[C@@H]1C[C@H](CS(=O)(=O)CCc2ccccc2)CN1C(=O)C(c1ccccc1)c1ccccc1

stdout:
1: 7.17; 2: 7.23; 3: 6.49; 4: 6.44; 5: 6.40; 6: 6.81; 7: 5.76; 8: 5.52

Report pIC50 for each item below.
1. O=C(O)[C@@H]1C[C@H](N2CCC[C@@H](c3ccccc3)C2)CN1C(=O)C(c1ccccc1)c1ccccc1
2. O=C(O)[C@@H]1C[C@H](N2CCN(c3ccccc3)CC2)CN1C(=O)C(c1ccccc1)c1ccccc1
3. CN(CCCc1ccccc1)[C@H]1C[C@@H](C(=O)O)N(C(=O)C(c2ccccc2)C2CCCCC2)C1 (some centres unmarked)

stdout:
1. 7.05
2. 6.54
3. 6.27
